system: Histone deacetylase 1 (Homo sapiens)
Sequence (Q13547 whole entry): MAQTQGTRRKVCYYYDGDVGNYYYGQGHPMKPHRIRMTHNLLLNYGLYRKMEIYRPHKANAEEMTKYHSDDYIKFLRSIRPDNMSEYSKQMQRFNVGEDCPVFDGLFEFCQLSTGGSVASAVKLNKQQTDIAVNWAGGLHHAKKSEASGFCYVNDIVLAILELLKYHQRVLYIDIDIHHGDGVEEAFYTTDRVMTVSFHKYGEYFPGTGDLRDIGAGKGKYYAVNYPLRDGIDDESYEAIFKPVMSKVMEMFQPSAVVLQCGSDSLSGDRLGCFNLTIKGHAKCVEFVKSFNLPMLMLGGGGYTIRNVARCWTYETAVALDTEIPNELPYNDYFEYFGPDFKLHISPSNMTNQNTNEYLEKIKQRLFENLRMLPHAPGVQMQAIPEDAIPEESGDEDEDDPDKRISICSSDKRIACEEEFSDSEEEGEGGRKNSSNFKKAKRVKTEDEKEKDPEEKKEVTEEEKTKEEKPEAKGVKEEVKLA
protocolSummary: Inhibition of human recombinant HDAC1 after 15 mins by fluorogenic assay
reportedConditions: read-out: IC50
pIC50: −log10 of the molar value.
recordedMetric: pIC50

1: O=C(CCCCCCC(=O)Nc1ccc(C2=C(c3ccc(O)cc3)C3CC(S(=O)(=O)Oc4ccc5ccccc5c4)C2O3)cc1)NO (centres undefined)
2: Cc1ccccc1OS(=O)(=O)C1CC2OC1C(c1ccc(NC(=O)CCCCCCC(=O)O)cc1)=C2c1ccc(O)cc1 (racemic)
Pick the one with the larger pIC50: 1 vs 2 In your reply, give the label of the chosen option.
2

1: Cc1cccc(OS(=O)(=O)C2CC3OC2C(c2ccc(NC(=O)CCCCCCC(=O)O)cc2)=C3c2ccc(O)cc2)c1 (racemic)
2: O=C(O)CCCCCCC(=O)Nc1ccc(C2=C(c3ccc(O)cc3)C3CC(S(=O)(=O)Oc4ccc(Cl)cc4)C2O3)cc1 (racemic)
Pick the one with the larger pIC50: 1 vs 2 In your reply, give the label of the chosen option.
2
(2: 6.62, 1: 5.53)

* * *

system: UniProtKB Q9UBN7
Sequence (Q9UBN7 whole entry): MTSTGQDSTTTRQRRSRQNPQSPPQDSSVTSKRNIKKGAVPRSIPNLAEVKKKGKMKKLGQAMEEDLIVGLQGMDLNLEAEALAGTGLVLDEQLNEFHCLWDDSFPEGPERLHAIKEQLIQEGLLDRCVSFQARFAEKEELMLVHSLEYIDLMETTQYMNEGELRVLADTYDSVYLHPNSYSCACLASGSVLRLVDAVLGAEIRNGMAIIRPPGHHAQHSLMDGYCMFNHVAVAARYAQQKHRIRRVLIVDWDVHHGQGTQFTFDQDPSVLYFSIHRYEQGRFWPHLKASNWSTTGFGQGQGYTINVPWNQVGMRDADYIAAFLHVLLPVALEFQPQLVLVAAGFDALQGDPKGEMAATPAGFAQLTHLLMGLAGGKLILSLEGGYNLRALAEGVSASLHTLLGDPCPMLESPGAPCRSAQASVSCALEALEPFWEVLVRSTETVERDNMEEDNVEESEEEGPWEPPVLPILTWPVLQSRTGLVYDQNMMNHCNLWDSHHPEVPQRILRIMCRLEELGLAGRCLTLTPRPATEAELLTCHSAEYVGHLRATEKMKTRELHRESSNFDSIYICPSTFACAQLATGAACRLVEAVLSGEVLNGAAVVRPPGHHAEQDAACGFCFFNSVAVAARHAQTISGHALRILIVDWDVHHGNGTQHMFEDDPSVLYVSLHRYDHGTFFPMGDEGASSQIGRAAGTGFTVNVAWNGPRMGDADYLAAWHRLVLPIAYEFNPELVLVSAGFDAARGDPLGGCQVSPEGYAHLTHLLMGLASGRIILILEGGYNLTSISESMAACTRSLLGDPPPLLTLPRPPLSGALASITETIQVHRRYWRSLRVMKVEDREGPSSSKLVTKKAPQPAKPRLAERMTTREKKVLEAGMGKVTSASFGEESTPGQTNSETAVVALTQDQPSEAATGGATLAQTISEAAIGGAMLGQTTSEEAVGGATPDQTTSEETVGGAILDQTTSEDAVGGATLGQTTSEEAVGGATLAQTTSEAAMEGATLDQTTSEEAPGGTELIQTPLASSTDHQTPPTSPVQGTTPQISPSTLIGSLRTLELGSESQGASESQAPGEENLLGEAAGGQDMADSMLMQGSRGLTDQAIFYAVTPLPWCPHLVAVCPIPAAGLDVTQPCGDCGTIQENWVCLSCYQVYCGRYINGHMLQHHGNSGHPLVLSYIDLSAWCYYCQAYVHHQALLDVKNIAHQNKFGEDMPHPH
protocolSummary: Inhibition of human recombinant HDAC6 after 15 mins by fluorogenic assay
reportedConditions: read-out: IC50
recordedMetric: IC50 (nM)

O=C(CCCCCCC(=O)Nc1ccc(C2=C(c3ccc(O)cc3)C3CC(S(=O)(=O)Oc4cccc5ccccc45)C2O3)cc1)NO (racemic): 30
O=C(O)CCCCCCC(=O)Nc1ccc(OS(=O)(=O)C2CC3OC2C(c2ccc(O)cc2)=C3c2ccc(O)cc2)cc1 (stereo not drawn): 8340
O=C(O)CCCCCCC(=O)Nc1ccc(C2=C(c3ccc(O)cc3)C3CC(S(=O)(=O)Oc4ccc(C(F)(F)F)cc4)C2O3)cc1 (racemic): 648
O=C(CCCCCCC(=O)Nc1ccc(C2=C(c3ccc(O)cc3)C3CC(S(=O)(=O)Oc4ccc5ccccc5c4)C2O3)cc1)NO (stereo not drawn): 322
O=C(O)CCCCCCC(=O)Nc1ccc(C2=C(c3ccc(O)cc3)C3CC(S(=O)(=O)Oc4cccc(O)c4)C2O3)cc1 (racemic): 71

I: COc1ccc(OS(=O)(=O)C2CC3OC2C(c2ccc(NC(=O)CCCCCCC(=O)O)cc2)=C3c2ccc(O)cc2)cc1 (racemic)
II: O=C(CCCCCCC(=O)Nc1ccc(C2=C(c3ccc(O)cc3)C3CC(S(=O)(=O)Oc4ccc(Br)cc4)C2O3)cc1)NO (racemic)
Looking at I and II , which one comes out lower in IC50 terms? In your reply, give the label of the chosen option.
II

* * *

system: Histone deacetylase 1 (Homo sapiens)
protocolSummary: Inhibition of human recombinant HDAC1 after 15 mins by fluorogenic assay
reportedConditions: read-out: IC50
pIC50: −log10 of the molar value.
recordedMetric: pIC50

I: O=C(O)CCCCCCC(=O)Nc1ccc(OS(=O)(=O)C2CC3OC2C(c2ccc(O)cc2)=C3c2ccc(O)cc2)cc1 (centres undefined)
II: COC(=O)CCCCCCC(=O)Nc1ccc(OS(=O)(=O)C2CC3OC2C(c2ccc(O)cc2)=C3c2ccc(O)cc2)cc1 (centres undefined)
Looking at I and II , which one comes out lower in pIC50 terms? In your reply, give the label of the chosen option.
II
(II: 6.27, I: 6.97)

1: O=C(O)CCCCCCC(=O)Nc1ccc(C2=C(c3ccc(O)cc3)C3CC(S(=O)(=O)Oc4ccc5ccccc5c4)C2O3)cc1 (centres undefined)
2: O=C(CCCCCCC(=O)Nc1ccc(OS(=O)(=O)C2CC3OC2C(c2ccc(O)cc2)=C3c2ccc(O)cc2)cc1)NO (centres undefined)
Pick the one with the larger pIC50: 1 vs 2 In your reply, give the label of the chosen option.
1
(1: 6.55, 2: 6.23)

* * *

system: Estrogen receptor (Homo sapiens)
Sequence (P03372 whole entry): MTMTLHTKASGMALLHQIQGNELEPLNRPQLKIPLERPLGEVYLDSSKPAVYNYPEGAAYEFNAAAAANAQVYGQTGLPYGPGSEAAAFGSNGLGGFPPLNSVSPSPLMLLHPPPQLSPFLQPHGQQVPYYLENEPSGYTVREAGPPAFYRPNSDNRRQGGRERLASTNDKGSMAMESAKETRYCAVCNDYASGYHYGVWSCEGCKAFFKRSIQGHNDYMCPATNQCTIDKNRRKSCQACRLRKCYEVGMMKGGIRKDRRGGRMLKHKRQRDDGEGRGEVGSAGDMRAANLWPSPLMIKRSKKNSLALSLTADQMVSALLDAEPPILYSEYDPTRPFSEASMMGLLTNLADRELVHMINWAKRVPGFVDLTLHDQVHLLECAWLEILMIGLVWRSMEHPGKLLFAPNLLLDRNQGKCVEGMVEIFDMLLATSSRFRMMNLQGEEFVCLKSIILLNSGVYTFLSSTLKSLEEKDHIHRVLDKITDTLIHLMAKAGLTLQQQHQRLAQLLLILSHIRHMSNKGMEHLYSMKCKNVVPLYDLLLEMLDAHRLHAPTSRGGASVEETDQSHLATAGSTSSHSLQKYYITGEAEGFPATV
protocolSummary: Antagonist activity at ER-alpha (unknown origin) transfected in HEK293T cells assessed as inhibition of transcriptional activity after 24 hrs by luciferase reporter gene assay
pIC50: −log10 of the molar value.
recordedMetric: pIC50

Cc1ccc(OS(=O)(=O)C2CC3OC2C(c2ccc(NC(=O)CCCCCCC(=O)O)cc2)=C3c2ccc(O)cc2)cc1 (racemic): 5.97

1: COc1ccc(OS(=O)(=O)C2CC3OC2C(c2ccc(NC(=O)CCCCCCC(=O)O)cc2)=C3c2ccc(O)cc2)cc1 (racemic)
2: O=C(O)CCCCCCC(=O)Nc1ccc(C2=C(c3ccc(O)cc3)C3CC(S(=O)(=O)Oc4ccccc4)C2O3)cc1 (racemic)
Looking at 1 and 2 , which one comes out lower in pIC50 terms? In your reply, give the label of the chosen option.
1

P: O=C(O)CCCCCCC(=O)Nc1ccc(C2=C(c3ccc(O)cc3)C3CC(S(=O)(=O)Oc4ccc(Br)cc4)C2O3)cc1 (racemic)
Q: O=C(O)CCCCCCC(=O)Nc1ccc(C2=C(c3ccc(O)cc3)C3CC(S(=O)(=O)Oc4ccc5ccccc5c4)C2O3)cc1 (configuration not stated)
Pick the one with the larger pIC50: P vs Q In your reply, give the label of the chosen option.
Q
(Q: 6.04, P: 5.77)

* * *

pKi: −log10 of the molar value.
// endpoint pKi / system Estrogen receptor (Homo sapiens)
recordedMetric: pKi

O=C(O)CCCCCCC(=O)Nc1ccc(C2=C(c3ccc(O)cc3)C3CC(S(=O)(=O)Oc4ccccc4)C2O3)cc1 (racemic): 6.95

1: O=C(O)CCCCCCC(=O)Nc1ccc(C2=C(c3ccc(O)cc3)C3CC(S(=O)(=O)Oc4ccc(Cl)cc4)C2O3)cc1 (racemic)
2: COc1cccc(OS(=O)(=O)C2CC3OC2C(c2ccc(NC(=O)CCCCCCC(=O)O)cc2)=C3c2ccc(O)cc2)c1 (racemic)
Pick the one with the larger pKi: 1 vs 2 In your reply, give the label of the chosen option.
1
(1: 6.90, 2: 5.35)

* * *

system: Estrogen receptor beta (Homo sapiens, UniProt Q92731)
Sequence (Q92731 whole entry): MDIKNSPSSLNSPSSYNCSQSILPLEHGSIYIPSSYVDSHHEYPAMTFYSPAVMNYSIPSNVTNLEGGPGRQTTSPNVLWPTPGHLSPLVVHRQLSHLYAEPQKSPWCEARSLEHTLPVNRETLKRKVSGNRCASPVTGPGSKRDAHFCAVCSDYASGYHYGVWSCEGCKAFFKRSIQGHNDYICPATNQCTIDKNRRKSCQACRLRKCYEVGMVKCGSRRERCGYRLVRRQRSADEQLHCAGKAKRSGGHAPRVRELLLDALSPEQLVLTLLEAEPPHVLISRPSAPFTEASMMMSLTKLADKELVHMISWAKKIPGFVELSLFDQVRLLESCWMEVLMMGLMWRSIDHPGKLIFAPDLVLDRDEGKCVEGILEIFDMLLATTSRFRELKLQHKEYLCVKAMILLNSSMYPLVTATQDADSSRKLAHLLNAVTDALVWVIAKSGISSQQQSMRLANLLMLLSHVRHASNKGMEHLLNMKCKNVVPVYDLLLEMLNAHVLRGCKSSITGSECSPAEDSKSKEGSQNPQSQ
protocolSummary: Antagonist activity at ER-beta (unknown origin) transfected in HEK293T cells assessed as inhibition of transcriptional activity after 24 hrs by luciferase reporter gene assay relative to 17-beta estradiol
Type: cell-based
reportedConditions: HEK-293T
recordedMetric: Efficacy (%)

Solved cases below.
Cc1ccccc1OS(=O)(=O)C1CC2OC1C(c1ccc(NC(=O)CCCCCCC(=O)O)cc1)=C2c1ccc(O)cc1 (racemic): 117
O=C(O)CCCCCCC(=O)Nc1ccc(C2=C(c3ccc(O)cc3)C3CC(S(=O)(=O)Oc4ccc(F)cc4)C2O3)cc1 (racemic): 85
O=C(CCCCCCC(=O)Nc1ccc(C2=C(c3ccc(O)cc3)C3CC(S(=O)(=O)Oc4ccc(F)cc4)C2O3)cc1)NO (racemic): 86
O=C(O)CCCCCCC(=O)Nc1ccc(C2=C(c3ccc(O)cc3)C3CC(S(=O)(=O)Oc4ccccc4)C2O3)cc1 (racemic): 97

a: O=C(O)CCCCCCC(=O)Nc1ccc(C2=C(c3ccc(O)cc3)C3CC(S(=O)(=O)Oc4ccccc4C(F)(F)F)C2O3)cc1 (racemic)
b: O=C(CCCCCCC(=O)Nc1ccc(OS(=O)(=O)C2CC3OC2C(c2ccc(O)cc2)=C3c2ccc(O)cc2)cc1)NO (centres undefined)
Pick the one with the larger Efficacy: a vs b In your reply, give the label of the chosen option.
a
(a: 102%, b: -27%)

* * *

pKi: −log10 of the molar value.
// endpoint pKi / system Estrogen receptor beta (Homo sapiens, UniProt Q92731)
recordedMetric: pKi

Cc1cccc(C)c1OS(=O)(=O)C1CC2OC1C(c1ccc(NC(=O)CCCCCCC(=O)O)cc1)=C2c1ccc(O)cc1 (racemic): 6.01

1: O=C(O)CCCCCCC(=O)Nc1ccc(C2=C(c3ccc(O)cc3)C3CC(S(=O)(=O)Oc4ccccc4)C2O3)cc1 (racemic)
2: O=C(CCCCCCC(=O)Nc1ccc(C2=C(c3ccc(O)cc3)C3CC(S(=O)(=O)Oc4ccc(F)cc4)C2O3)cc1)NO (racemic)
3: O=C(O)CCCCCCC(=O)Nc1ccc(C2=C(c3ccc(O)cc3)C3CC(S(=O)(=O)Oc4ccc(O)cc4)C2O3)cc1 (racemic)
Ordering: ascending pKi. Returns: the labels arranged in the requested order.
2, 1, 3
(2: 5.47, 1: 6.18, 3: 7.41)

* * *

system: Estrogen receptor beta (Homo sapiens, UniProt Q92731)
protocolSummary: Agonist activity at ER-beta (unknown origin) transfected in HEK293T cells assessed as stimulation of transcriptional activity after 24 hrs by luciferase reporter gene assay relative to 17-beta estradiol
Type: cell-based
reportedConditions: HEK-293T
recordedMetric: Efficacy (%)

Solved cases below.
O=C(CCCCCCC(=O)Nc1ccc(C2=C(c3ccc(O)cc3)C3CC(S(=O)(=O)Oc4ccccc4)C2O3)cc1)NO (racemic): 38
COc1ccccc1OS(=O)(=O)C1CC2OC1C(c1ccc(NC(=O)CCCCCCC(=O)NO)cc1)=C2c1ccc(O)cc1 (racemic): 53
Cc1ccccc1OS(=O)(=O)C1CC2OC1C(c1ccc(NC(=O)CCCCCCC(=O)O)cc1)=C2c1ccc(O)cc1 (racemic): 24
O=C(O)CCCCCCC(=O)Nc1ccc(C2=C(c3ccc(O)cc3)C3CC(S(=O)(=O)Oc4ccc(Cl)cc4)C2O3)cc1 (racemic): 44
COc1ccc(OS(=O)(=O)C2CC3OC2C(c2ccc(NC(=O)CCCCCCC(=O)O)cc2)=C3c2ccc(O)cc2)cc1 (racemic): 5

a: Cc1ccc(OS(=O)(=O)C2CC3OC2C(c2ccc(NC(=O)CCCCCCC(=O)O)cc2)=C3c2ccc(O)cc2)cc1 (racemic)
b: Cc1cccc(C)c1OS(=O)(=O)C1CC2OC1C(c1ccc(NC(=O)CCCCCCC(=O)O)cc1)=C2c1ccc(O)cc1 (racemic)
Looking at a and b , which one comes out lower in Efficacy terms? In your reply, give the label of the chosen option.
b

Values were extracted from ChEMBL document CHEMBL3588800.
